Data provenance: PubChem BioAssay (NCATS)

Tested on: GB4
experiment: qHTS profiling for inhibitors of Plasmodium falciparum proliferation (AID 504749); further: nearly all actives have a fitted effect of over 60% in size
test parameters: P. falciparum in erythrocytes, SYBR Green DNA, 72 h; series mostly up to 28.7 µM
Inconclusive results are not listed. The source made the active and inactive calls. The call rests on the fitted dose curve; in most records, active means well fitted inhibition curve with a large enough effect; inconclusive means small, poorly fitted or top-dose-only effect; inactive means flat fitted curve, though single readings scatter.
Just give me one of these, please: active, inactive

Please share the test call associated with `Cc1cc(N)c2cc(NC(=O)Nc3ccc4nc(C)cc(N)c4c3)ccc2n1` . active

Entry to check: `O=C(O)CCCCC(=O)O` inactive

And what about the molecule `C[C@H](O)C(=O)Nc1c(I)c(C(=O)NC(CO)CO)c(I)c(C(=O)NC(CO)CO)c1I` ? inactive

Now consider CC(O)C(=O)O (stereo not drawn) and answer again. inactive

Then `Cc1c(N(C)CS(=O)(=O)O)c(=O)n(-c2ccccc2)n1C` ? inactive

Also `C[C@]12CC[C@@H]3c4ccc(O)cc4CC[C@H]3[C@@H]1CC[C@@H]2O` , if possible. inactive

Also need `C[C@H]1C[C@H]2[C@@H]3CCC4=CC(=O)C=C[C@]4(C)[C@@]3(Cl)[C@@H](O)C[C@]2(C)[C@@]1(O)C(=O)CO` , thanks. inactive

Next: `Oc1c(Cl)cc(Cl)cc1Sc1cc(Cl)cc(Cl)c1O` inactive

Also `CCCCCCc1ccc(O)cc1O` ? inactive

Now the molecule CC1=C(C(=O)OC(C)C)C(c2cccc([N+](=O)[O-])c2)C(C(=O)OC2CN(C(c3ccccc3)c3ccccc3)C2)=C(N)N1 (stereo not drawn) active

Next molecule: `CC(=O)Oc1ccc(C(c2ccc(OC(C)=O)cc2)c2ccccn2)cc1` inactive

Lookup `CC(C)(C)CC(C)(C)c1ccc(O)c(Cc2ccc(Cl)cc2Cl)c1` active

// repeat for `CC1(C)CCC(NC(=O)[C@@H](N)CCC(=O)O)CC1` and report inactive
